molecular target: Estrogen Receptor (ERα) in MCF-7 cells (Homo sapiens (Human)); assay: MCF-7 ER down-regulation assay (immuno-fluorescence)
Sequence (P03372 whole entry): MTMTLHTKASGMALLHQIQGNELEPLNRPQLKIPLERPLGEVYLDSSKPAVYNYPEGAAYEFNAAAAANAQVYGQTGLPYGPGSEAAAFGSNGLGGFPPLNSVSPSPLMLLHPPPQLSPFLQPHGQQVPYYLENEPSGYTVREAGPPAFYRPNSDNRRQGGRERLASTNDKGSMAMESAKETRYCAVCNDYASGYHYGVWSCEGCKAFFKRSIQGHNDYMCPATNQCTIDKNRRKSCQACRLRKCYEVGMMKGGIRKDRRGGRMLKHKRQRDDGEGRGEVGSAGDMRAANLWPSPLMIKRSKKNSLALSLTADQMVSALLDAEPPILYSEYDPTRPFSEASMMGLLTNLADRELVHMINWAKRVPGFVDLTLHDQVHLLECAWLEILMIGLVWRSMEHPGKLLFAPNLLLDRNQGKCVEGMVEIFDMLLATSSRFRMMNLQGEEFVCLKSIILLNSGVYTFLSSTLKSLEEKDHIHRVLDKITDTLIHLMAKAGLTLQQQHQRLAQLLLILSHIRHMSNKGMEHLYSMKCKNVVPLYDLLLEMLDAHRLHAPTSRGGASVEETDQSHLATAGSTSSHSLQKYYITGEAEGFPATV
Flag rule - IC50 less than 1 nM flags y; the remaining entries get n.

Mol Smiles: C[C@@H](CN1[C@H](c2c(F)ccc(OCCNCCCF)c2Cl)c2[nH]c3ccccc3c2C[C@H]1C(F)F)C(=O)O
Class Label: n

Prompt line: I'd appreciate it if you could check whether "C[C@@H]1Cc2c([nH]c3ccc(F)cc23)[C@@H](c2c(F)ccc(NCCNCCCF)c2F)N1CC(F)(F)CO" has IC50 smaller than 1 nM.
Response line: y

Prompt line: Does this compound meet the criterion IC50 < 1 nM? "Cc1c(OCCNCCCF)ccnc1[C@@H]1c2[nH]c3ccccc3c2C[C@@H](C)N1CC(F)(F)CO"
Response line: y

Prompt line: Could you please tell me whether IC50 recorded for "C[C@@H]1Cc2c([nH]c3ccccc23)[C@@H](c2c(F)cnc(OCCNCCCF)c2Cl)N1C[C@H](C)C(=O)O" is less than 1 nM?
Response line: n

---

assay: Log D (shake flask, 1-octanol/aqueous buffer); format: physicochemical; conditions: 1-octanol/aqueous buffer, pH 7.4, pH 7.4
A collection of molecules and their measured logD
I'd appreciate a reply containing only the number, no unit.

Prompt line: Give its logD value. Item: "C[C@@H]1Cc2c([nH]c3ccccc23)[C@@H](c2nccc(NCCNCCCF)c2F)N1CC(F)(F)F"
Response line: 2.4

Prompt line: Need logD, item "COc1ccc(OCCNCCCF)c(F)c1[C@@H]1c2[nH]c3ccccc3c2C[C@@H](C)N1CC(F)(F)CO"
Response line: 2.6

Prompt line: State the recorded logD for this entry: "Cc1c([C@@H]2c3[nH]c4ccccc4c3C[C@@H](C)N2C[C@H](C)C(=O)O)ccnc1OCCNCCCF"
Response line: 0.6

Prompt line: Form field: reported logD of "Cc1c(OCCNCCCF)ncnc1[C@@H]1c2[nH]c3ccccc3c2C[C@@H](C)N1CC(F)(F)F"
Response line: 3.3

---

Measured Human plasma protein binding (% free), listed per entry.
assay: Human plasma protein binding (equilibrium dialysis); type: in vitro ADME
Just the number in % free, nothing appended.

Molecule: COc1ccc(OCCNCCCF)c(F)c1[C@@H]1c2[nH]c3ccccc3c2C[C@@H](C)N1CC1(F)CC1 [Example 83]
Human plasma protein binding (% free): 2.5
//
Molecule: C[C@@H]1Cc2c([nH]c3ccccc23)[C@@H](c2cccc(OCCNCCCF)c2C(F)F)N1CC(F)(F)CO [Example 68]
Human plasma protein binding (% free): 1.2
//
Molecule: C[C@@H]1Cc2c([nH]c3ccccc23)[C@@H](c2ccnc(OCCNCCCF)c2)N1CC(F)(F)F [Example 102]
Human plasma protein binding (% free): 1.4
//
Molecule: COc1ccc(OC[C@@H](C)NCCCF)cc1[C@@H]1c2[nH]c3ccccc3c2C[C@@H](C)N1CC(F)(F)CO [Example 50]
Human plasma protein binding (% free): 7.1

Prompt line: # get_value(readout='Human plasma protein binding (% free)', item= Cc1c(OCCNCCCF)ccc(F)c1[C@@H]1c2[nH]c3ccccc3c2CC(C)(C)N1C[C@H](C)C(=O)O [Example 134] )
Response line: 36

Prompt line: For C[C@@H]1Cc2c([nH]c3ccccc23)[C@@H](c2cccc(OCCNCCCF)c2C#N)N1CC(F)(F)F [Example 69] , what is its reported Human plasma protein binding (% free)?
Response line: 2.2

Prompt line: May I ask what Human plasma protein binding (% free) has been recorded for COc1ccc(OCCNCCCF)c(C)c1[C@@H]1c2[nH]c3ccccc3c2C[C@@H](C)N1CC(F)(F)F [Example 26] ?
Response line: 0.22

Prompt line: Request the reported Human plasma protein binding (% free) associated with C[C@@H]1Cc2c([nH]c3ccccc23)[C@@H](c2cc(OCCNCCCF)ccc2C#N)N1CC(F)(F)F [Example 23]
Response line: 3.7

Prompt line: What Human plasma protein binding (% free) value was documented for this molecule, COc1ncc(OCCNCCCF)cc1[C@@H]1c2[nH]c3ccccc3c2C[C@@H](C)N1CC(F)(F)F [Example 36] ?
Response line: 2

Prompt line: So what does the record say about Human plasma protein binding (% free) for COc1cc(F)c(NCCNCCCF)cc1[C@@H]1c2[nH]c3ccccc3c2C[C@@H](C)N1CC(F)(F)F [Example 91] ?
Response line: 0.93

Prompt line: Record request: Human plasma protein binding (% free) value, item CC(CN1[C@H](c2c(Cl)ccc(OCCNCCCF)c2Cl)c2[nH]c3ccc(F)cc3c2C[C@H]1C)C(=O)O (single isomer, unassigned) [Example 129]
Response line: 23

Prompt line: Quick one: Human plasma protein binding (% free) for C[C@@H]1Cc2c([nH]c3ccccc23)[C@@H](c2c(Cl)ccc(OCCNCCCF)c2Cl)N1C[C@H](C)C(=O)O [Example 128] ?
Response line: 15

Prompt line: Endpoint output: Human plasma protein binding (% free) of C[C@@H]1Cc2c([nH]c3ccccc23)[C@@H](c2c(F)c(F)cc(OCCNCCCF)c2F)N1CC(F)(F)F [Example 32] . Value?
Response line: 0.52

Prompt line: If you can, please state the reported Human plasma protein binding (% free) value of C[C@@H]1Cc2c([nH]c3ccccc23)[C@@H](c2nccc(OCCNCCCF)c2Cl)N1CC(F)(F)F [Example 93] .
Response line: 0.34

Prompt line: Need Human plasma protein binding (% free), item COc1c(F)cc(OCCNCCCF)cc1[C@@H]1c2[nH]c3ccccc3c2C[C@@H](C)N1CC(F)(F)F [Example 27]
Response line: 0.42

Prompt line: Consider the molecule shown here: Cc1c(NCCNCCCF)ccc(F)c1[C@@H]1c2[nH]c3ccccc3c2C[C@@H](C)N1C[C@H](C)C(=O)O [Example 135] What is its recorded Human plasma protein binding (% free)?
Response line: 32

Prompt line: Reported Human plasma protein binding (% free), molecule Cc1c(OCCN(C)CCCF)ncc(F)c1[C@@H]1c2[nH]c3ccccc3c2C[C@@H](C)N1C(C)CC(=O)O (single isomer, unassigned) [Example 159] : ____
Response line: 13

Prompt line: So what's the measured Human plasma protein binding (% free) for this one? Cc1c(OCCNCCCF)cncc1[C@@H]1c2[nH]c3ccccc3c2C[C@@H](C)N1CC(F)(F)F [Example 38]
Response line: 0.91

---

Listed here: compounds with reported IC50 for hERG potassium channel (Homo sapiens (Human), UniProt Q12809).

Compound: C[C@@H]1Cc2c([nH]c3ccccc23)[C@@H](c2nccc(OCCNCCCF)c2Cl)N1CC(F)(F)F
IC50: 6.6 µM
--
Compound: C[C@@H]1Cc2c([nH]c3ccc(F)cc23)[C@@H](c2c(F)cnc(OCCN(C)CCCF)c2F)N1CC(F)(F)CO
IC50: 5.7 µM
--
Compound: C[C@@H]1Cc2c([nH]c3ccccc23)[C@@H](c2cccc(OCCNCCCF)c2Cl)N1CC(F)(F)F
IC50: 5.2 µM

Prompt line: What IC50 value was documented for this compound, "COc1c(F)cc(OCCNCCCF)cc1[C@@H]1c2[nH]c3ccccc3c2C[C@@H](C)N1CC(F)(F)F" ?
Response line: 4.8 µM

Prompt line: Please give the measured IC50 for this compound: "COc1ncc(NCCNCCCF)cc1[C@@H]1c2[nH]c3ccccc3c2C[C@@H](C)N1CC(F)(F)F"
Response line: 4.9 µM

Prompt line: Returns the measured IC50 for the input compound. Input: "C[C@@H]1Cc2c([nH]c3ccccc23)[C@@H](c2cc(OCCNCCCF)ncc2F)N1CC(F)(F)F"
Response line: 3.9 µM

Prompt line: Would you kindly share the measured IC50 for "Cc1c(OCCNCCCF)ccnc1[C@@H]1c2[nH]c3ccccc3c2C[C@@H](C)N1CC(F)(F)CO" ?
Response line: 10 µM

Prompt line: Dear colleague, I am looking for the recorded IC50 of the following compound: "COc1cnc(OCCNCCCF)cc1[C@@H]1c2[nH]c3ccccc3c2C[C@@H](C)N1CC(F)(F)F"
Response line: 8.2 µM

Prompt line: GET /values?readout=IC50&item= "COc1ccc(OCCNCCCF)c(F)c1[C@@H]1c2[nH]c3ccccc3c2C[C@@H](C)N1CC1(F)CC1"
Response line: 4 µM

---

pIC50 overview
molecular target: recombinant human Estrogen Receptor alpha ligand binding domain (ER alpha-LBD (GST)) (Homo sapiens (Human)); assay: ERα binding assay (LanthaScreen TR-FRET competition)
Sequence (P03372 307-554): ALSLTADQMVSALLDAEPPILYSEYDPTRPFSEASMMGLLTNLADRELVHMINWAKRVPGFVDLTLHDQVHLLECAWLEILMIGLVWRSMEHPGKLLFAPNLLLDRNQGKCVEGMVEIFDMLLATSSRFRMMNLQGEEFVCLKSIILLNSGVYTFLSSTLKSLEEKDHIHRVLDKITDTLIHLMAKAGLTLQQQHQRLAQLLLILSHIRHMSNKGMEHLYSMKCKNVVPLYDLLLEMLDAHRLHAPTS
Quick note: pIC50 values are minus log10 of concentrations in mol/L.

Below, 3 compounds whose answers are already recorded.
Mol Smiles: COc1ccc(OCCNCCCF)cc1[C@@H]1c2[nH]c3ccccc3c2C[C@@H](C)N1CC(F)(F)F
Result Type: pIC50
Numeric Readout: 8.82
--
Mol Smiles: Cc1c(OCCNCCCF)ccc(F)c1[C@@H]1c2[nH]c3ccccc3c2C[C@@H](C)N1CCC#N
Result Type: pIC50
Numeric Readout: 9.27
--
Mol Smiles: COc1ncc(NCCNCCCF)cc1[C@@H]1c2[nH]c3ccccc3c2C[C@@H](C)N1CC(F)(F)F
Result Type: pIC50
Numeric Readout: 7.92

Prompt line: Report pIC50 for "Cc1ccc(OCCNCCCF)nc1[C@@H]1c2[nH]c3ccccc3c2C[C@@H](C)N1CC(F)(F)F" please.
Response line: 7.38

Prompt line: Fill in the blank: the reported pIC50 of "COc1ccc(NCCNCCCF)c(F)c1[C@@H]1c2[nH]c3ccccc3c2C[C@@H](C)N1CC(F)(F)F" is ____.
Response line: 9.19

Prompt line: # input compound: "Cc1c(OCCNCCCF)ccc(F)c1[C@@H]1c2[nH]c3ccccc3c2C[C@@H](C)N1CC1(C(=O)O)CCC1" ; wanted: its pIC50
Response line: 7.96

Prompt line: Fill in the blank: the reported pIC50 of "COc1ccc(OCCNCCCF)c(F)c1[C@@H]1c2[nH]c3ccccc3c2C[C@@H](C)N1CC(F)F" is ____.
Response line: 9.10
